- Tested on: Rattus norvegicus
- Assay procedure: Inhibition of the passive cutaneous anaphylaxis (PCA) reaction in rats by intravenous administration of 0.01 mg/kg
- Type: functional
Property name: inhibition in vivo at 0.01 mg/kg (%)
State the answer as a number, implicitly in %.

Asked: Quick check: inhibition in vivo at 0.01 mg/kg of `COc1ccc2nc3cc(C(=O)O)nn3c(O)c2c1` ?
Given back: 30

Asked: Entry `Cn1c2ccc(Cl)cc2c(=O)n2nc(-c3nn[nH]n3)cc12` please
Given back: 17

Asked: # repeat for `Cn1c2ccc(F)cc2c(=O)n2nc(-c3nn[nH]n3)cc12`
Given back: 10

Asked: Try `O=C(O)c1cc2nc3ccc(F)cc3c(O)n2n1` next.
Given back: 2

Asked: Lookup `COc1cc2nc3cc(C(=O)O)nn3c(O)c2cc1OC`
Given back: 16

Asked: Next compound up: `COc1ccc2c(c1)c(=O)n1nc(C(=O)O)cc1n2C`
Given back: 23

Asked: Same again, this time with `COc1cccc2c(O)n3nc(C(=O)O)cc3nc12`
Given back: 74

---

Quick reference for inhibition in vivo at 5 mg/kg among some compounds
- System: Rattus norvegicus
- Assay procedure: Inhibition of passive cutaneous anaphylaxis (PCA) reaction in rats, peroral administration 5 mg/kg
- Assay type: functional
- Study conditions: route oral
Quick note: give the figure in %, leave out the unit.

Below, each entry is followed by its recorded inhibition in vivo at 5 mg/kg result.
Compound: COc1ccc2nc3cc(C(=O)O)nn3c(O)c2c1
Target entity: Rattus norvegicus
inhibition in vivo at 5 mg/kg [%]: 0
--
Compound: Oc1c2ccccc2nc2cc(-c3nn[nH]n3)nn12
Target entity: Rattus norvegicus
inhibition in vivo at 5 mg/kg [%]: 0
--
Compound: COc1ccc2c(c1)c(=O)n1nc(-c3nn[nH]n3)cc1n2C
Target entity: Rattus norvegicus
inhibition in vivo at 5 mg/kg [%]: 0
--
Compound: CC(=O)Nc1ccc2c(c1)c(=O)n1nc(C(=O)O)cc1n2C
Target entity: Rattus norvegicus
inhibition in vivo at 5 mg/kg [%]: 0
--
Compound: O=C(O)c1cc2nc3ccc(O)cc3c(O)n2n1
Target entity: Rattus norvegicus
inhibition in vivo at 5 mg/kg [%]: 0

Asked: // returns reported inhibition in vivo at 5 mg/kg for input `COc1cccc2c(O)n3nc(C(=O)Nc4nn[nH]n4)cc3nc12`
Given back: 14

Asked: Please do the same for `O=C(O)c1cc2nc3ccccc3c(O)n2n1` as well.
Given back: 5

Asked: And `O=C(O)c1cc2n(Cc3ccccc3)c3ccc(Cl)cc3c(=O)n2n1` ?
Given back: 7

Asked: Queued: `Cc1cccc2c(O)n3nc(C(=O)O)cc3nc12`
Given back: 0

Asked: Now the same for `COc1cc2c(=O)n3nc(C(=O)O)cc3n(C)c2cc1OC`
Given back: 6

Asked: Let us now turn to `O=C(O)c1cc2nc3ccc(F)cc3c(O)n2n1`
Given back: 16

Asked: Next up: `COc1cccc2c(O)n3nc(C(=O)O)cc3nc12`
Given back: 79

Asked: Likewise for `COc1cc2nc3cc(C(=O)O)nn3c(O)c2cc1OC` ?
Given back: 5

Asked: Entry `O=C(Nc1nn[nH]n1)c1cc2nc3ccc(Cl)cc3c(O)n2n1` please
Given back: 8

Asked: Consider next the compound `Cn1c2ccc(NC(=O)c3ccccc3)cc2c(=O)n2nc(C(=O)O)cc12` in the same way.
Given back: 1

Asked: Try this compound too: `Cc1ccc2nc3cc(C(=O)O)nn3c(O)c2c1`
Given back: 0

Asked: Next record, please: `O=C(Nc1nn[nH]n1)c1cc2n(Cc3ccccc3)c3ccc(Cl)cc3c(=O)n2n1`
Given back: 0
